FYI, the data here is from patent US10245261B2.

TESTED_TARGET: cSRC(h) (Homo sapiens)
Sequence (P12931 whole entry): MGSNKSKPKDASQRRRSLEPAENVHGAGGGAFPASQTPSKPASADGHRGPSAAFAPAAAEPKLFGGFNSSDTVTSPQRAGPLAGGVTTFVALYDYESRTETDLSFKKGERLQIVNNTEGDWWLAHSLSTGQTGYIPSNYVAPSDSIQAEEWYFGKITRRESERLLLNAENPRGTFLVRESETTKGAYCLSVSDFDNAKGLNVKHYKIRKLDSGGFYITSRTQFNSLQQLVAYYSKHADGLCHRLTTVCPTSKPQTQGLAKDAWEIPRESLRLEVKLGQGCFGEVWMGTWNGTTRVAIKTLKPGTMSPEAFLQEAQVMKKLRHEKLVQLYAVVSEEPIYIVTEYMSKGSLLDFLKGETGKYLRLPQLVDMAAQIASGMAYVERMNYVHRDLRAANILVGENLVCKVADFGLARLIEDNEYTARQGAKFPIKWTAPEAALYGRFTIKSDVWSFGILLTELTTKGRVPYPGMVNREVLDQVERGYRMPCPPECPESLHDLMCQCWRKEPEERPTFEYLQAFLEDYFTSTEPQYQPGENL
PROTOCOL_SUMMARY: KinaseProfiler kinase assay
Type: biochemical
REPORTED_METRIC: inhibition at 1 µM (%)

{"columns": ["MOLECULE", "UNITS_TEXT", "MEASURED_VALUE"],
 "data": [
  ["C/C=C/c1cc(Nc2cc(N3CCN(CCO)CC3)nc(Oc3cc(F)c4[nH]c(C)cc4c3F)n2)n[nH]1", "%", 100],
  ["Cc1cc2c(F)c(Oc3nc(Nc4cc(C5CC5)[nH]n4)cc(N4CCN(c5ccncc5)CC4)n3)ccc2[nH]1", "%", 99],
  ["C/C=C/c1cc(Nc2cc(N3CCC(OC)CC3)nc(Oc3ccc4[nH]c(C)cc4c3F)n2)n[nH]1", "%", 101],
  ["C/C=C/c1cc(Nc2cc(N3CCC(OC)CC3)nc(Oc3cc(F)c4[nH]c(C)cc4c3F)n2)n[nH]1", "%", 101],
  ["C/C=C/c1cc(Nc2cc(N3CCN(CCOC)CC3)nc(Oc3ccc4[nH]c(C)cc4c3F)n2)n[nH]1", "%", 99],
  ["C/C=C/c1cc(Nc2cc(N3CCN(CC)CC3)nc(Oc3cc(F)c4[nH]c(C)cc4c3F)n2)n[nH]1", "%", 103],
  ["COCC1CCN(c2cc(Nc3cc(C4CC4)[nH]n3)nc(Oc3ccc4[nH]c(C)cc4c3F)n2)C1 (centres unmarked)", "%", 102],
  ["Cc1cc2c(F)c(Oc3nc(Nc4cc(C5CC5)[nH]n4)cc(N4CCOCC4)n3)ccc2[nH]1", "%", 100],
  ["Cc1cc2c(F)c(Oc3nc(Nc4cc(C5CC5)[nH]n4)cc(N4CCN(C)CC4)n3)ccc2[nH]1", "%", 100],
  ["C/C=C/c1cc(Nc2cc(N3CCOCC3)nc(Oc3ccc4c(cc(C)n4C)c3F)n2)n[nH]1", "%", 104],
  ["C/C=C/c1cc(Nc2cc(N3CCN(C)CC3)nc(Oc3ccc4[nH]c(C)cc4c3Cl)n2)n[nH]1", "%", 104],
  ["Cc1cc2c(F)c(Oc3nc(Nc4cc(C5CC5)[nH]n4)cc(N4CCN(CCN(C)C)CC4)n3)ccc2[nH]1", "%", 101],
  ["CCN1CCN(c2cc(Nc3cc(C)[nH]n3)nc(Oc3cc(F)c4[nH]c(C)cc4c3F)n2)CC1", "%", 96],
  ["C/C=C/c1cc(Nc2cc(N3CCC(OC)C3)nc(Oc3ccc4[nH]c(C)cc4c3F)n2)n[nH]1 (centres unmarked)", "%", 101],
  ["C/C=C/c1cc(Nc2cc(N3CCN(S(C)(=O)=O)CC3)nc(Oc3cc(F)c4[nH]c(C)cc4c3F)n2)n[nH]1", "%", 100],
  ["Cc1cc2c(F)c(Oc3nc(Nc4cc(C5CC5)[nH]n4)cc(N4CCNCC4)n3)ccc2[nH]1", "%", 101],
  ["Cc1cc2c(F)c(Oc3nc(Nc4cc(C5CC5)[nH]n4)cc(N4CCN(c5ccccn5)CC4)n3)ccc2[nH]1", "%", 100],
  ["Cc1cc2c(F)c(Oc3nc(Nc4cc(C5CC5)[nH]n4)cc(N4CCOC(CN)C4)n3)ccc2[nH]1 (centres unmarked)", "%", 97],
  ["C/C=C/c1cc(Nc2cc(N3CCN(C)CC3)nc(Oc3ccc4c(cc(C)n4C)c3F)n2)n[nH]1", "%", 104],
  ["C/C=C/c1cc(Nc2cc(N3CCC(N(CC)CC)C3)nc(Oc3cc(F)c4[nH]c(C)cc4c3F)n2)n[nH]1 (centres unmarked)", "%", 100],
  ["Cc1cc2c(F)c(Oc3nc(Nc4cc(C5CC5)[nH]n4)cc(N4CCN(c5cccnc5)CC4)n3)ccc2[nH]1", "%", 100],
  ["C/C=C/c1cc(Nc2cc(N3CCC(O)CC3)nc(Oc3ccc4[nH]c(C)cc4c3F)n2)n[nH]1", "%", 100],
  ["Cc1cc(Nc2cc(N3CCN(CCO)CC3)nc(Oc3cc(F)c4[nH]c(C)cc4c3F)n2)n[nH]1", "%", 96],
  ["C/C=C/c1cc(Nc2cc(N3CCOCC3)nc(Oc3ccc4[nH]c(C)cc4c3F)n2)n[nH]1", "%", 99],
  ["Cc1cc2c(F)c(Oc3nc(Nc4cc(C5CC5)[nH]n4)cc(N4CCNCC4)n3)cc(F)c2[nH]1", "%", 100],
  ["Cc1cc2c(F)c(Oc3nc(Nc4cc(C5CC5)[nH]n4)cc(N4CCN(CCO)CC4)n3)ccc2[nH]1", "%", 100],
  ["C/C=C/c1cc(Nc2cc(N3CCC(N(CC)CC)C3)nc(Oc3ccc4[nH]c(C)cc4c3F)n2)n[nH]1 (centres unmarked)", "%", 101],
  ["C/C=C/c1cc(Nc2cc(N3CCS(=O)(=O)CC3)nc(Oc3ccc4[nH]c(C)cc4c3F)n2)n[nH]1", "%", 99],
  ["C/C=C/c1cc(Nc2cc(N3CCN(C)CC3)nc(Oc3ccc4[nH]c(C)cc4c3F)n2)n[nH]1", "%", 98]
]}
